# TGT: 3-hydroxyacyl-CoA dehydrogenase type-2 (Homo sapiens) (UniProt Q99714)
# PROTOCOL DESCRIPTION: qHTS Assay for Inhibitors of HSD17B4, hydroxysteroid (17-beta) dehydrogenase 4;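 also: the protocol describes HADH2 (HSD17B10) and not the HSD17B4 of the title; nearly all actives have a fitted effect of over 70% in size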
# DETAILS: recombinant HSD17B10, NADH fluorescence kinetic; series mostly up to 57.1 µM
In all, about 75,000 compounds went through this assay and about 5,700 (7.6%) were called active. Not shown: some 7% with an inconclusive outcome. Calls follow the shape of the dose curve; as a rule, active = well fitted inhibition curve with a large enough effect; inconclusive = small, poorly fitted or top-dose-only effect; inactive = no such curve, though single readings can be large or run the other way. The entries come from a sample that favours actives as a whole.
Result category, one only: active, inactive

Completed entries (count: 8):
CCOC(=O)C1C(=O)C=C(c2ccc(OC)cc2)CC1c1ccco1 (stereo not given) :: active
CC(=O)Nc1ccc(S(=O)(=O)N2CCCC2C(=O)O)cc1 (stereo not given) :: inactive
Cc1ccc(OCC(O)CN2CCN(CC(O)COc3ccc(C)cc3Cl)CC2)c(Cl)c1 (stereo not given) :: inactive
CNc1ncnc2ccc(-c3cccc(NS(C)(=O)=O)c3)cc12 :: inactive
CC1C(c2ccccc2)=[N+]([O-])C2(CCCC2)N1O (stereo not given) :: inactive
COc1ccc(CCNC(=O)c2ccco2)cc1 :: inactive
Cc1c(O)c(Br)c(C)c(O)c1Br (tested in a mixture with another compound) :: active
CCOC(=O)C1C(=O)NC(N2CCN(c3ccccc3)CC2)=NC1c1ccco1 (stereo not given) :: inactive

INPUT: What was the test verdict on "O=C(NCc1ccccc1)[C@H]1C[C@@H]1[C@H](NP(=O)(c1ccccc1)c1ccccc1)c1ccccc1" ?
OUTPUT: inactive

INPUT: Tell me the recorded outcome of this test for "COCCNc1ncnc2ccc(-c3cccnc3)cc12" .
OUTPUT: active
